The values you see were collected from PubChem BioAssay.

assay: basal S. cerevisiae growth modulation, no modifier, primary screen, OD600, strain BY4716, 24 h, basal condition (AID 1173); conditions: OD600, 24 h, higher = more signal, called active from +8 up or from −8 down
Below, each of the compounds is paired with its reported z-score value.
Reply: number alone, nothing else.

chemical_structure: O=C1c2ccccc2[C@](Cc2ccccc2I)(C(=O)NCc2ccccc2)[C@H](c2ccc(CO)cc2)N1Cc1ccccc1C(F)(F)F
z-score: -0.712
//
chemical_structure: COC(=O)C[C@H]1O[C@]2(C(=O)N(Cc3ccccc3)c3ccc(I)cc32)[C@@H](C)[C@@H]1[Si](C)(C)c1ccc(OC)cc1
z-score: -2.01

Consider the compound CO[C@@H]1COC(=O)[C@H](C)NC(=O)CC=C[C@@H](C)[C@H](OC)COC(=O)[C@H](C)NC(=O)CC=C[C@H]1C and give its recorded z-score.
-0.786

In one line, give reported z-score of the entry CO[C@H]1COC(=O)[C@@H](C)COC(=O)[C@H](Cc2ccccc2)NC(=O)CC=C[C@H]1C .
-1.05
